Assay: qHTS drug screen for cell cycle checkpoint inhibitors in PARPi-resistant BRCA-mutant ovarian cancer cell lines. (AID 1963452)
Conditions: PEO1/OlaR viability, CellTiter-Glo luminescence, 96 h; hits give low values
As shown below, each of these molecules has a reported Z-AUC value.

{"Molecule": "Nc1nc(OC(c2ccc(-c3cccc(F)c3)cc2)C(F)(F)F)cc(-c2ccc(C[C@H](N)C(=O)O)cc2)n1 (stereo not given in full)", "Z-AUC": -0.825}
{"Molecule": "O=C(NO)c1cnc(N2C[C@H]3C[C@@H]2CN3c2cc(C(F)(F)F)ccn2)nc1", "Z-AUC": -1}
{"Molecule": "Cc1cccc(/C=N/Nc2cc(N3CCOCC3)nc(OCCc3ccccn3)n2)c1", "Z-AUC": 0.655}
{"Molecule": "CN1CCCN(C(=O)c2cccc(-c3ccc(/C=C4/C(=O)Nc5ccc(Cl)cc54)o3)c2)CC1", "Z-AUC": 0.657}
{"Molecule": "COc1cc2c(cc1OC)CN(CCc1ccc(-n3nnc(-c4cc(OC)c(OC)cc4NC(=O)c4cc(=O)c5ccccc5o4)n3)cc1)CC2", "Z-AUC": 2.8}
